Here's a roundup of pKi values tested on Beta-secretase 1 (Homo sapiens), taken from various published works.
pKi: −log10 of the molar value.
Endpoint Name: pKi

The examples below pair each entry with its known result.
CN1C(=N)N[C@](C)(c2ncc(-c3cccc(-c4nnco4)c3)s2)CS1(=O)=O | 7.86
C[C@@]1(c2sc(-c3cncnc3)cc2Cl)CS(=O)(=O)C2(CCCC2)C(=N)N1 | 7.14
C[C@H]1C[C@@H]2[C@](c3cc(Oc4ncncc4F)ccc3F)(CO1)NC(=N)N(C)S2(=O)=O | 7.92
C[C@@]1(c2cc(NC(=O)c3ccc(F)cn3)ccc2F)Cc2nc(C3CC3)ncc2C(=N)N1 | 7.88
COc1cnc(C(=S)Nc2cc(F)c(F)c([C@]3(C)CS(=O)(=O)N(C)C(=N)N3)c2)cn1 | 8.10
CN1C(=N)N[C@](C)(c2sc3c(-c4ccc(-c5nccn5C)cc4)nccc3c2Cl)CS1(=O)=O | 5.79
CN1C(=N)N[C@](C)(c2sc(-c3cncc(-c4ncco4)c3)cc2Cl)CS1(=O)=O | 8.16
COc1cnc(C(=O)Nc2ccc(F)c([C@]34CCC[C@H]3S(=O)(=O)N(C)C(=N)N4)c2)c(C)n1 | 7.64
CN=[S@]1(=O)C[C@@](C)(c2cc(Nc3nccc4cc(OC)cnc34)ccc2F)NC(=N)C1(C)C | 7.55
Cc1csc(C(=O)Nc2ccc(F)c([C@@]3(C)N=C(N)[C@](C)(F)CC3(F)F)c2)n1 | 6.85

P = CC1(C)C(=N)N[C@@]2(CCOc3ccc(NC(=O)c4cn5cc(C#N)ccc5n4)cc32)CS1(=O)=O
Q = COc1cncc(-c2cc(Cl)c([C@]3(C)CS(=O)(=O)C4(CCOCC4)C(=N)N3)s2)c1
R = CCS(=O)(=O)C1(C)CCC(CF)(c2cc(NC(=O)c3cc4c(cn3)OC(F)(F)O4)cc(F)c2F)N=C1N (stereo not drawn)
S = Cc1ncc2c(n1)C[C@](c1cc(NC(=O)c3ccc(C#N)cn3)ccc1F)(C(F)F)NC2=N
T = CN1CC2(C1)C(=N)N[C@](C)(c1cc(NC(=O)c3ccc(OC(F)F)cn3)ccc1F)CS2(=O)=O
Q. Order the records, beginning with the lowest pKi and ending with the highest. Your reply should list the labels following the order given in the request.
A. Q, P, S, T, R
(Q: 6.26, P: 6.92, S: 8.15, T: 8.57, R: 9.72)

P = Cn1ccnc1C(=O)Nc1ccc(F)c([C@@]2(C)N=C(N)[C@](C)(F)C[C@@H]2F)c1
Q = CN1C(=N)N[C@](C)(c2cc(NC(=O)c3ccc(C(F)(F)F)cn3)ccc2F)CS1(=O)=O
Q. Pick one: P or Q . Which has the bigger pKi number? Please indicate the selected item by its label.
A. Q

P = COc1ccc(C(=O)Nc2ccc(F)c([C@@]3(C)N=C(N)[C@@](C)(F)C[C@@H]3F)c2)nc1
Q = COc1cncc(-c2ccc(F)c([C@]3(C)Cc4ncncc4C(=N)N3)c2)c1
R = NC1=N[C@](CF)(c2cc(NC(=O)c3ccc(F)cn3)cc(F)c2F)C(F)(F)CC1
Q. Order the records, beginning with the lowest pKi and ending with the highest. Your reply should list the labels following the order given in the request.
A. Q, R, P

1 = CN1C[C@@](C)(c2cc(NC(=O)c3cnc(OCC(F)(F)F)cn3)ccc2F)NC(=N)C(C)(C)S1(=O)=O
2 = COC[C@H]1C[C@@H]2[C@](c3cc(Oc4cnccc4Cl)ccc3F)(CO1)NC(=N)N(C)S2(=O)=O
Q. Pick one: 1 or 2 . Which has the bigger pKi number? Please indicate the selected item by its label.
A. 1
